Target: T1, human PTH1R on Saos-2 cells (endogenous) (human, UniProt Q03431 27-593)
T1 sequence (looked up): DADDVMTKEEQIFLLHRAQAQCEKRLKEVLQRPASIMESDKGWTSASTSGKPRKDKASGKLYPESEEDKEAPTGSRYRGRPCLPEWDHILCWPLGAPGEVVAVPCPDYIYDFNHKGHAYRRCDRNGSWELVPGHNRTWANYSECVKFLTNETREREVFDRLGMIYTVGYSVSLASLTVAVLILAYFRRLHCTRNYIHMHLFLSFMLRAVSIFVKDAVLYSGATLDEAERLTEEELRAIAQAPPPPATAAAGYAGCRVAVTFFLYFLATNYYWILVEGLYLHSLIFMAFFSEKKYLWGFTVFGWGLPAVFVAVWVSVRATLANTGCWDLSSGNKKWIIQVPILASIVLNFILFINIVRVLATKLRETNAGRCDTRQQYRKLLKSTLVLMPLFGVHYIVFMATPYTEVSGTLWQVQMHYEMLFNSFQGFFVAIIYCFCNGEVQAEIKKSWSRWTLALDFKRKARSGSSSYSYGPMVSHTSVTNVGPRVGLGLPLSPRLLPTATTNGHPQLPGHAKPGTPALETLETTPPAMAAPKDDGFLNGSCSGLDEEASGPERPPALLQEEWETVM
Test: cell-based or functional assay
parameter measured: % inhibition of cAMP accumulation at 1 µM PTH(1-34), 267 nM IgG (%)
Please give a number only; it is taken to be in %.

{"binder": "XPA.85.346 (antibody, V domains shown, Light-chain-shuffled variant of XPA.85.012) VH: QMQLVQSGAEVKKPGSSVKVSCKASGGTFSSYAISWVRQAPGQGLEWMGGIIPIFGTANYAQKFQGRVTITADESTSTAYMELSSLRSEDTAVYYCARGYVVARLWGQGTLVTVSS VL: DIVMTQTPLSLSVTPGQPASITCKSSQSLLHIDGKTYLYWFLQKPGQPPQLLIYEVSNRFSGVPDRFSGSGSGTDFTLKISRVEAEDVGLYYCMQSLHLPITFGQGTRLEIK", "observed measurement": 72}
{"binder": "XPA.85.331 (antibody, V domains shown, Light-chain-shuffled variant of XPA.85.012) VH: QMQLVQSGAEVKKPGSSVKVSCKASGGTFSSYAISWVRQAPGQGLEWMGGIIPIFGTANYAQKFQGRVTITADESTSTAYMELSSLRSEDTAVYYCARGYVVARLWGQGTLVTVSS VL: DVVMTQSPLSLPVTPGEPASISCRSSQSLLHIDGFNYLQWYLQKPGQSPQLLVHLGSFRASGVPDRFSGSGSGTDFTLEISRVEAEDVGLYYCMQGLQTPPTFGPGTKVEIK", "observed measurement": 67}

Qu. Read the entry XPA.85.342 (antibody, V domains shown, Light-chain-shuffled variant of XPA.85.012) VH: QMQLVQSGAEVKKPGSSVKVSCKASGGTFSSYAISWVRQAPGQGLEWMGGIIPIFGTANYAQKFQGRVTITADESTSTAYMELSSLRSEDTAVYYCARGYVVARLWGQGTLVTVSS VL: ETTLTQSPTFMSASVGDRVTITCQASQDINNFLNWYQQKPGKAPKFLIYDASNLEKGVPSRFSGRGSGTEFTLTISSLQPEDIATYYCQQYRDFPLTFGQGTRLEIK and write its reported % inhibition of cAMP accumulation at 1 µM PTH(1-34), 267 nM IgG.
Ans. 0
